Tested on: Escherichia coli TOP10;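 further: peptides expressed intracellularly from a pBAD plasmid library in pooled LB shake-flask culture, induced with 0.3% L-arabinose, DNA abundance read by NGS, three biological replicates, DESeq2 with apeglm shrinkage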
test_summary: shrunken log2 fold change of peptide-encoding DNA abundance (4.5 h post-induction vs induction); higher = less antimicrobial activity (less host growth inhibition)
condition_context: time post-induction: 4.5 h; library: site-saturation at positions 5, 18, 19, 20
I would appreciate it if you labelled entries 1 when shrunken log2 fold change is 0.5 or higher, otherwise -1.

INSERT INTO measurements (biopolymer_sequence, assigned_class) VALUES
  ('RRIRQRPPRLPRPRPRPEFSPRP', -1),
  ('RRIRCRPPRLPRPRPRPTAWPRP', 1),
  ('RRIRGRPPRLPRPRPRPDVMPRP', 1),
  ('RRIRIRPPRLPRPRPRPNTSPRP', -1),
  ('RRIRSRPPRLPRPRPRPQTNPRP', -1),
  ('RRIRSRPPRLPRPRPRPITDPRP', -1),
  ('RRIRQRPPRLPRPRPRPGKSPRP', -1),
  ('RRIRDRPPRLPRPRPRPVAVPRP', -1);
